assay: Cmax in CD-1 mouse plasma at 50 mg/kg, po administered as single dose by LC-MS/MS analysis; format: ADME, organism-based; parameters: dose 50 mg/kg, route oral
PROPERTY: Cmax (ng/mL)
Kindly answer with a numeric value in ng/mL, unit omitted.

For COC(=O)C1=C(CN2CC(F)(F)C[C@H]2C(=O)O)NC(c2nccs2)=N[C@@]1(C)c1ccc(F)cc1 the compound record lists Cmax as 2470

---

test: Cmax in CD-1 mouse liver at 50 mg/kg, po administered as single dose by LC-MS/MS analysis; format: ADME, organism-based; parameters: dose 50 mg/kg, route oral
PROPERTY: Cmax (ng/mL)
Kindly answer with a numeric value in ng/mL, unit omitted.

For COC(=O)C1=C(CN2CC(F)(F)C[C@H]2C(=O)O)NC(c2nccs2)=N[C@@]1(C)c1ccc(F)cc1 the compound record lists Cmax as 41200
